Molecular target: Autotaxin (Homo sapiens, UniProt Q13822)
Test: Inhibition of C-terminal FLAG-tagged human recombinant autotaxin using synthetic substrate FS-3 at 10 uM measured every 2 mins by FRET assay relative to control
// reported inhibition for each item listed
Quick note: give the figure in %, leave out the unit.

* COc1cc(CCNC(=O)c2ccc3c(c2)nc(-c2cc(OC)cc(OC)c2)n3CCc2ccc(OC)c(OC)c2)cc(OC)c1 | 30
* COc1ccc(/C=N/NC(=O)c2cc(O)c(O)c(O)c2)cc1Cn1nc(C)c(Br)c1C | 10

Now turn to the next compound.
Please look at this compound and report its inhibition: CC1CCC(C(C)C)C(OCc2nc3cc(C(=O)NCCOCCO)ccc3n2Cc2ccco2)C1 (stereo not drawn)
10

====

Target: Autotaxin (Homo sapiens, UniProt Q13822)
Test: Inhibition of C-terminal FLAG-tagged human recombinant autotaxin using synthetic substrate FS-3 measured every 2 mins by FRET assay
Entries are sorted into classes by IC50 as follows: bucket 1: < 0.9 µM; bucket 2: ≥ 0.9 µM and < 2 µM; bucket 3: ≥ 2 µM

Use these answered entries as a reference point.
- O=C(O)c1ccccc1-c1ccc(/C=C2/SC(=S)N(Cc3ccccc3)C2=O)o1: bucket 3
- CC(C)c1ccc(OCC(=O)N2CCN(c3ccc(C(=O)N4CCCC4C(N)=O)cn3)CC2C)cc1 (stereo not drawn): bucket 2
- CC(C)Cc1ccc(C(C)C(=O)N2CCC(CCCC3CCN(c4ccc(C(=O)NC(C(N)=O)C(C)O)cn4)CC3)CC2)cc1 (stereo not drawn): bucket 1
- CCCc1ccc(S(=O)(=O)Oc2ccccc2-c2cc(CC)n(CCN3CCCCC3)n2)cc1: bucket 3
- CC1CN(c2ccc(C(=O)N3CCCC3C(N)=O)cn2)CCC1C(=O)COc1cccc2ccccc12 (stereo not drawn): bucket 2
- COc1cc(CCNC(=O)c2ccc3c(c2)nc(-c2cccc4ccccc24)n3CCc2ccc(OC)c(OC)c2)cc(OC)c1: bucket 2

Class for CC(C)C1C(=O)Nc2cc(S(=O)(=O)NCc3ccccc3)ccc2N1C(=O)CN1CCCCC1 (stereo not drawn) ?
bucket 3

Kindly identify the class of "O=C(O)c1ccc(-c2ccc(/C=C3/SC(=O)N(Cc4ccc(F)cc4)C3=O)o2)cc1" .
bucket 3

Which class is correct for the following compound? COc1cc(C2CC(=O)NC(SCC(=O)Nc3ccc(Br)cc3)=C2C#N)ccc1O (stereo not drawn)
bucket 3

Hello team, could you let me know which band the following compound falls into: CC1CCC(C(C)C)C(OCC(=O)N2CCC(CCCC3CCN(c4ccc(C(=O)N5CCCC5C(N)=O)cc4)CC3)CC2)C1 (stereo not drawn)
bucket 1

====

Molecular target: Autotaxin (Homo sapiens)
Assay: Inhibition of C-terminal FLAG-tagged human recombinant autotaxin using synthetic substrate FS-3 at 10 uM measured every 2 mins by FRET assay relative to control
Binary call on inhibition: Y from 30% upward, N beneath that.

Worked examples follow.
- COc1cc(C2CC(=O)NC(SCC(=O)Nc3ccc(Br)cc3)=C2C#N)ccc1O (stereo not drawn): Y
- CC(CNC(=O)c1cc(-c2ccccc2)nc2ccccc12)C(=O)NCCNc1ccccc1 (stereo not drawn): N
- CC1CCC(C(C)C)C(OCC(=O)N2CCC(CCCC3CCN(c4ccc(C(=O)N5CCCC5C(N)=O)cc4)CC3)CC2)C1 (stereo not drawn): Y
- CC(=O)N1CCN(C(=O)c2ccc3nc(C)c(N(C)C(=O)CCc4ccccc4)n3c2)CC1: N

Identify whether the reported inhibition of the following compound is 30% or greater: "O=C(O)[C@@H](Cc1ccccc1)N1C(=O)/C(=C/c2cccc(Oc3ccc(Cl)cc3)c2)SC1=S"
N

// inclusive: inhibition at least 30%? input: "CCCCCCOc1ccc(/C=N/c2ccc(-c3ccc(/N=C/c4ccc(OCCCCCC)c(OC)c4)cc3)cc2)cc1CC"
Y

Is inhibition for N#CC1=C(SCC(=O)N(c2ccccc2)c2ccccc2)NC(=O)CC1c1cc(Br)c(O)c(Br)c1 (stereo not drawn) at or above 30%?
N

# bool: inhibition of CC1CCC(C(C)C)C(OCC(=O)N2CCCN(c3ncccc3C(=O)N3CCCC3C(N)=O)CC2)C1 (stereo not drawn) >= 30%
N

In plain terms: is recorded inhibition at least 30% for "O=C1/C(=C\c2ccc(OCc3cccc4ccccc34)cc2)SC(=S)N1c1cccc(F)c1" ?
N

Tell me whether inhibition is at least 30% here: N#CC1=C(SCC(=O)Nc2ccc(Br)cc2)NC(=O)CC1c1ccc(O)cc1 (stereo not drawn)
N

Identify whether the reported inhibition of the following compound is 30% or greater: CCN(CCCCOC(=O)c1ccc(OC)c(OC)c1)C(C)Cc1ccc(OC)cc1 (stereo not drawn)
N

Hi team, for "COc1ccccc1/C=C1\SC(=O)N(CCC(=O)N2c3ccccc3Sc3ccccc32)C1=O" , is the recorded inhibition at or above 30%?
N

Tell me whether inhibition is at least 30% here: CC(O)C(NC(=O)c1ccc(N2CCCN(C(=O)CCC(=O)c3ccccc3)CC2)nc1)C(N)=O (stereo not drawn)
N
